These measurements were taken from ChEMBL document CHEMBL4184298.

Target or system Mast/stem cell growth factor receptor Kit (Homo sapiens, UniProt P10721); recorded quantity IC50.

[[record]]
molecule = "CNc1ncc2c(-c3ccc(N4CCNCC4)nc3)nn(Cc3cn(-c4ccsc4C(=O)OC)nn3)c2n1"
measurement_kind = "IC50"
data_value = "> 10000 nM"

[[record]]
molecule = "CNc1ncc2c(-c3ccc(N4CCN(C)CC4)nc3)nn(CC3CCCC3)c2n1"
measurement_kind = "IC50"
data_value = "360 nM"

[[record]]
molecule = "Nc1nc(Nc2ccc3c(c2)CC[C@@H](N2CCCC2)CC3)nn1-c1cc2c(nn1)-c1ccccc1CCC2 [BEMCENTINIB]"
measurement_kind = "IC50"
data_value = "1000 nM"

[[record]]
molecule = "CNc1ncc2c(-c3ccc(N4CCNCC4)nc3)nn(Cc3cn(Cc4ccccc4)nn3)c2n1"
measurement_kind = "IC50"
data_value = "> 10000 nM"


Now for the molecule whose IC50 we want.
Exercise: Form field: reported IC50 of CNc1ncc2c(-c3ccc(N4CCN(C)CC4)nc3)nn(Cc3cn(Cc4ccccc4)nn3)c2n1
Solution: > 10000 nM

====

System tested: Aurora kinase A (Homo sapiens)
Sequence (O14965 whole entry): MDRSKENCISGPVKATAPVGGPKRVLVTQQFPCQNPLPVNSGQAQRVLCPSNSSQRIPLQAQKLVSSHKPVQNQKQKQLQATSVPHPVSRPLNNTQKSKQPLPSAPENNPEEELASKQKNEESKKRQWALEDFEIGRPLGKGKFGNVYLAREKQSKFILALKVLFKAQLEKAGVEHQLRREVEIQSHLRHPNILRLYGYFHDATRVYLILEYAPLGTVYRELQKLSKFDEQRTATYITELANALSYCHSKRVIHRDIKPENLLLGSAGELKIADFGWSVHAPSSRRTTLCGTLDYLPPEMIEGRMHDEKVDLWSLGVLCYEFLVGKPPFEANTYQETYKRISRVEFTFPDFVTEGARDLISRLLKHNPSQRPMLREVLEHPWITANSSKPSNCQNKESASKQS
The label is Criterion met for IC50 below 700 nM and Criterion not met for IC50 equal to or exceeding 700 nM.

Solved cases (5 shown):
[[record]]
compound = "CNc1ncc2c(-c3ccc(N4CCN(C(=O)C(C)(C)C)CC4)nc3)nn(Cc3cn(Cc4ccccc4)nn3)c2n1"
cat = "Criterion not met"

[[record]]
compound = "CNc1ncc2c(-c3ccc(N4CCNCC4)nc3)nn(Cc3cn(Cc4ccccc4)nn3)c2n1"
cat = "Criterion not met"

[[record]]
compound = "Nc1nc(Nc2ccc3c(c2)CC[C@@H](N2CCCC2)CC3)nn1-c1cc2c(nn1)-c1ccccc1CCC2 [BEMCENTINIB]"
cat = "Criterion met"

[[record]]
compound = "CNc1ncc2c(-c3ccc(N4CCN(C(=O)C(C)(C)C)CC4)nc3)nn(CC3CCCC3)c2n1"
cat = "Criterion met"

[[record]]
compound = "CNc1ncc2c(-c3ccc(N4CCNCC4)nc3)nn(CC3OCCO3)c2n1"
cat = "Criterion met"


Exercise: Problem: For the compound CNc1ncc2c(-c3ccc(N4CCN(C)CC4)nc3)nn(CC3CCCC3)c2n1 , is IC50 under 700 nM?
Solution: Criterion met

Exercise: Follow-up item: CNc1ncc2c(-c3ccc(N4CCNCC4)nc3)nn(CC3CCCC3)c2n1
Solution: Criterion met

Exercise: Follow-up item: CNc1ncc2c(-c3ccc(N4CCNCC4)nc3)nn(Cc3cn(-c4ccsc4C(=O)OC)nn3)c2n1
Solution: Criterion not met
